- STUDY_TARGET: Dopamine beta hydroxylase (Homo sapiens, UniProt P09172)
- Construct: 125 μl of plasma; tissue Instituto Português do Sangue Transplantação; host or cells: human plasma from healthy donors
- Sequence (P09172 40-617 limits assumed): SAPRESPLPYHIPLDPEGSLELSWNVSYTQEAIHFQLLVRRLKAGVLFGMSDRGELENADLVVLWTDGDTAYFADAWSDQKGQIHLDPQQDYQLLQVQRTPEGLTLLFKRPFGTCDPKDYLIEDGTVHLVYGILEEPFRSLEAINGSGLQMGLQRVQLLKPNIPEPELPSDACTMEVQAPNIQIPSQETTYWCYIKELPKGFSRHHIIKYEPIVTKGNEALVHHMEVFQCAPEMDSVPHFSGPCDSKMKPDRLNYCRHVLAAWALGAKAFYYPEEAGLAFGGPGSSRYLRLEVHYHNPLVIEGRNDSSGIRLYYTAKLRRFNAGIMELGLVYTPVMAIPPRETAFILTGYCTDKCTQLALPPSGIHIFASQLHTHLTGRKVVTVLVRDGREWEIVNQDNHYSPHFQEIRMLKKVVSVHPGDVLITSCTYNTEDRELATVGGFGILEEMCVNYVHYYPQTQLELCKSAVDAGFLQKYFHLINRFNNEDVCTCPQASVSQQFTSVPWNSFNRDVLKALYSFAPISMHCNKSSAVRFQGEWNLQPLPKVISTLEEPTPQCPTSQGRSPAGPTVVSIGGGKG
- METHOD_SUMMARY: Dopamine beta hydroxylase activity in human plasma
- Format: biochemical
- RECORDED_CONDITIONS: inhibitor 0.1 μM
MEASURE_NAME: Plasma (0.1 μM), activity in % of control

Field: example entries. Status: answers known.
SMILES_NOTATION | VALUE
Cn1c(CC(=O)N[C@@H]2CCOC2)c2n(c1=S)C[C@@]1(c3cc(Br)ccc3F)C[C@@H]21 | 15.7 % of control
Cn1c(CC(=O)NC2CCCC2)c2n(c1=S)C[C@@]1(c3c(F)ccc(Cl)c3F)C[C@@H]21 | 13.2 % of control
Cn1c(CC(=O)NC[C@@H]2CCCO2)c2n(c1=S)C[C@H](c1c(F)ccc(Cl)c1F)C2 | 9.4 % of control

Continue with the compound presented below.
Plasma (0.1 μM), activity in % of control for `C[C@H](NC(=O)Cc1[nH]c(=S)n2c1C[C@H](c1c(F)c(F)cc(F)c1F)C2)C(N)=O` ? 64.0 % of control

----------
- STUDY_TARGET: Dopamine beta hydroxylase (Homo sapiens, UniProt P09172)
- Construct: 125 μl of plasma; tissue Instituto Português do Sangue Transplantação; host or cells: human plasma from healthy donors
- METHOD_SUMMARY: Dopamine beta hydroxylase activity in human plasma
- Type: biochemical
- RECORDED_CONDITIONS: inhibitor 0.01 μM
Reported Plasma (0.01 μM), activity in % of control values for the following compounds.

Study these solved cases before continuing.
COMPOUND | VALUE
Fc1ccc(Br)c(F)c1[C@H]1Cc2c(CCN3CCC(F)(F)CC3)[nH]c(=S)n2C1 [Example 177] | 99.9 % of control
O=C(NCc1[nH]c(=S)n2c1C[C@@H](c1c(F)ccc(Cl)c1F)C2)C1CCOCC1 [Example 222] | 73.6 % of control
CN(C(=O)Cc1[nH]c(=S)n2c1C[C@H](c1c(F)ccc(F)c1F)C2)C1CCOCC1 [Example 379] | 108.7 % of control

May I ask what Plasma (0.01 μM), activity in % of control has been recorded for CN(C(=O)Cc1c2n(c(=S)n1C)C[C@@]1(c3cc(Cl)ccc3F)C[C@@H]21)C1CCOCC1 [Example 434] ? 52.5 % of control

// returns reported Plasma (0.01 μM), activity in % of control for input Cn1c(CC(=O)NC2CCS(=O)(=O)CC2)c2n(c1=S)C[C@@H](c1c(F)ccc(F)c1F)C2 [Example 239] 60.1 % of control

Entry Cn1c(CCC(=O)N2CCCC2)c2n(c1=S)C[C@@H](c1c(F)c(F)cc(F)c1F)C2 [Example 261] : reported Plasma (0.01 μM), activity in % of control = ? 86.2 % of control

So what does the record say about Plasma (0.01 μM), activity in % of control for Cl.Cn1c(CCNCc2ccccn2)c2n(c1=S)C[C@@]1(c3cc(Cl)ccc3F)C[C@@H]21 [Example 343] ? 94.9 % of control

Name the reported Plasma (0.01 μM), activity in % of control value associated with the compound Cn1c(CC(=O)O)c2n(c1=S)C[C@H](c1c(F)ccc(Cl)c1F)C2 [Example 424] 59.5 % of control
